system_tested: CDK2 (Homo sapiens, UniProt P24941)
Construct: endogenous in cells; host or cells: MDA-MB-231
assay_name: CDK protein degradation activity (Western blotting), CDK2
Assay type: cell-based
condition_label: MDA-MB-231 cells, 0.1 μM, 16 hours, Western blot
outcome_measure: Enzyme degradation CDK2 (% remaining) @ 0.1 μM

[
  {
    "compound": "O=C1CC[C@H](N2C(=O)c3cccc(N4CCC(CN5CCC(CNc6ncnc7c6ncn7C6CC(NC(=O)c7c(Cl)cccc7Cl)C6)CC5)CC4)c3C2=O)C(=O)N1 (some centres unmarked)",
    "reading": "10%"
  },
  {
    "compound": "O=C1CC[C@H](N2C(=O)c3ccc(N4CC(C(=O)N5CCC(CN6CCC(CCNc7ncnc8c7ncn8C7CC(NC(=O)c8c(Cl)cccc8Cl)C7)CC6)CC5)C4)cc3C2=O)C(=O)N1 (some centres unmarked)",
    "reading": "30%"
  },
  {
    "compound": "Cc1cccc(C(=O)NC2CC(n3cnc4c(NCCCN5CCN(C(=O)CNc6cccc7c6C(=O)N([C@@H]6CCC(=O)NC6=O)C7=O)CC5)ncnc43)C2)n1 (some centres unmarked)",
    "reading": "80%"
  },
  {
    "compound": "Cc1cccc(C(=O)NC2CC(n3cnc4c(NCc5ccc(OCCCN6CCN(C(=O)CNc7ccc8c(c7)C(=O)N([C@H]7CCC(=O)NC7=O)C8=O)CC6)cc5)ncnc43)C2)n1 (some centres unmarked)",
    "reading": "30%"
  },
  {
    "compound": "O=C1CC[C@H](N2C(=O)c3cccc(OCC(=O)N4CCC(CN5CCC(CNc6ncnc7c6ncn7C6CC(NC(=O)Cc7ccccc7)C6)CC5)CC4)c3C2=O)C(=O)N1 (some centres unmarked)",
    "reading": "70%"
  }
]

====

system_tested: CDK2 (Homo sapiens, UniProt P24941)
Construct: endogenous in cells; host or cells: MDA-MB-231
assay_name: CDK protein degradation activity (Western blotting), CDK2
Type: cell-based
condition_label: MDA-MB-231 cells, 10 μM, 16 hours, Western blot
outcome_measure: Enzyme degradation CDK2 (% remaining) @ 10 μM (%)

[
  {
    "compound": "Cc1cccc(C(=O)N[C@H]2C[C@@H](n3cnc4c(NCCC5CCN(CC6CCN(C(=O)COc7ccc8c(c7)C(=O)N([C@H]7CCC(=O)NC7=O)C8=O)CC6)CC5)ncnc43)C2)n1",
    "reading": 10
  },
  {
    "compound": "O=C1CC[C@H](N2C(=O)c3cccc(OCC(=O)N4CCC(CN5CCN(c6ccc(Nc7ncnc8c7ncn8[C@H]7C[C@@H](NC(=O)c8c(Cl)cccc8Cl)C7)cc6)CC5)CC4)c3C2=O)C(=O)N1",
    "reading": 10
  },
  {
    "compound": "O=C1CC[C@H](n2nnc3ccc(N4CCC(CCCN5CCN(c6ccc(Nc7ncnc8c7ncn8C7CC(NC(=O)Cc8ccccc8)C7)cc6)CC5)CC4)cc3c2=O)C(=O)N1 (some centres unmarked)",
    "reading": 10
  },
  {
    "compound": "O=C1CC[C@@H](c2ccc(OCC(=O)N3CCC4(CC(N5CCN(c6ccc(Nc7ncnc8c7ncn8C7CC(NC(=O)Cc8ccccc8)C7)cc6)CC5)C4)C3)cc2)C(=O)N1 (some centres unmarked)",
    "reading": 20
  }
]

Values were extracted from patent US20260125382A1.
